Origin of values: the supplement of paper PMC13380429

- Tested on: U2OS
- protocol.summary: cell viability relative to DMSO; higher = less toxic
- condition.summary: 72 h; 1000 nM
Would you mind telling me the reported cell viability of each entry?
Give bare numbers, in %.

Check out these entries, answers already filled in.
Cc1ccc(C(=O)Nc2cccc(C(F)(F)F)c2)cc1Nc1nc(-c2cccnc2)nc2c1cnn2C | 95.5
CC#CC(=O)N1CCC[C@H]1c1nc(-c2ccc(C(=O)Nc3ccccn3)cc2)c2c(N)nccn12 | 95.3
N[C@@H]1CCCCN(c2c(F)cc3c(=O)c(C(=O)O)cn(C4CC4)c3c2Cl)C1 | 102

Below are 3 molecules. Give each one its cell viability.
1. O=C(O)CCCCCCNC1c2ccccc2CCc2ccccc21
2. Nc1nccs1
3. CC(C)N1CCN(c2ccc(OCC3COC(Cn4cncn4)(c4ccc(Cl)cc4Cl)O3)cc2)CC1 (stereo not given)

[99, 99.8, 104]

* * *

- Test system: HepG2
- protocol.summary: cell viability relative to DMSO; higher = less toxic
- condition.summary: 72 h; 1 nM
parameter: cell viability (%)
Give bare numbers, in %.

O=C(NC1CCNCC1)[C@@H]1CC[C@@H]2CN1C(=O)N2OS(=O)(=O)O | 93.9
COC(=O)[C@@H]1C[C@H](OC(C)=O)C(=O)[C@H]2[C@@]1(C)CC[C@H]1C(=O)O[C@H](c3ccoc3)C[C@]21C | 88.2

Below are 2 molecules. Give each one its cell viability.
1. COc1cc(/C=C(\C#N)C(N)=O)cc(CSc2nc3ccccc3s2)c1O
2. CC(C)(C)N1CCC(c2ccccc2)(c2ccccc2)CC1

1. 105
2. 88.8

* * *

- Tested on: Calu-3
- protocol.summary: drug sensitivity score (DSS) for viability; higher = more toxic; extreme values may be limits of the assay
- condition.summary: 72 h
parameter: drug sensitivity score
Answers are plain numbers.

Check out these entries, answers already filled in.
C1CCC(C(CC2CCCCN2)C2CCCCC2)CC1 (stereo unspecified) [perhexiline] | 5.4
COc1ccc(CCN(C)CCCC(C#N)(c2cc(OC)c(OC)c(OC)c2)C(C)C)cc1OC (stereo unspecified) [gallopamil] | 0
COc1ccc(CCN)cc1OC [homoveratrylamine] | 0
COc1ccc(NS(=O)(=O)c2sc3ccc(Cl)cc3c2C)cc1N1CCNCC1 | 0
CC(C)=CCC[C@](C)(O)[C@H]1CC[C@]2(C)[C@@H]1[C@H](O)C[C@@H]1[C@@]3(C)CC[C@H](O)C(C)(C)[C@@H]3[C@@H](O)C[C@]12C [hemomex-s] | 0
COc1cc2c(cc1O)CC[C@@H]1[C@@H]2CC[C@]2(C)[C@@H](O)CC[C@@H]12 [2-methoxyestradiol] | 2.1

Below are 4 molecules. Give each one its drug sensitivity score.
1. Cc1c(C(=O)Nc2ccc(N3C[C@@H](C)O[C@@H](C)C3)nc2)cccc1-c1ccc(OC(F)(F)F)cc1 [sonidegib]
2. CC(=O)Nc1cccc2c1c(Sc1ccc(Cl)cc1)c(C)n2CC(=O)O [AZD1981]
3. CCc1cc2c(cc1CC)CC(NC[C@H](O)c1ccc(O)c3[nH]c(=O)ccc13)C2 [indacaterol]
4. Clc1ccc(C(Cn2ccnc2)OCc2ccsc2Cl)c(Cl)c1 (stereo unspecified) [tioconazole]

1: 0; 2: 0; 3: 0; 4: 0

Below are 6 molecules. Give each one its drug sensitivity score.
1. CCn1nc(C2CCN(C(=O)CCO)CC2)nc1-c1cnc(N)c(-c2nnc(C(C)(C)C)o2)n1 [AZD8835]
2. COCCOC(=O)C1=C(C)NC(C)=C(C(=O)OC/C=C/c2ccccc2)C1c1cccc([N+](=O)[O-])c1 (stereo unspecified) [cilnidipine]
3. O=c1[nH]c(=O)n([C@H]2C[C@H](O)[C@@H](CO)O2)cc1I [idoxuridine]
4. O=C1c2c(O)cc(O)cc2O[C@H](c2cc(O)c(O)c(O)c2)[C@H]1O [dihydromyricetin]
5. CC(=O)OC[C@H]1O[C@@](COC(C)=O)(O[C@H]2O[C@H](COC(C)=O)[C@@H](OC(C)=O)[C@H](OC(C)=O)[C@H]2OC(C)=O)[C@@H](OC(C)=O)[C@@H]1OC(C)=O [sucrose-octaacetate]
6. COc1ccccc1Oc1c(NS(=O)(=O)c2ccc(C(C)(C)C)cc2)nc(-c2ncccn2)nc1OCCO [bosentan]

[5.9, 0, 0, 0, 0, 0]
